Reference source for all entries: paper doi:10.1101/2025.01.09.632085

Molecular target: thrombin (UniProt P00734;P00734 328-363;364-622)
Test: BLI
assay.metric: pKd
Please report pKd as the negative decimal logarithm of the molar concentration, giving only the number.

Using the record for GGTTGGTGTGGTTGG (structured_DNA) [HD1] , report its pKd.
7.49
